Reference source: ChEMBL document CHEMBL3431459

Parameter 'readout' = IC50; parameter 'system' = Carnitine O-palmitoyltransferase 2, mitochondrial (Rattus norvegicus).
Sequence (P18886 whole entry): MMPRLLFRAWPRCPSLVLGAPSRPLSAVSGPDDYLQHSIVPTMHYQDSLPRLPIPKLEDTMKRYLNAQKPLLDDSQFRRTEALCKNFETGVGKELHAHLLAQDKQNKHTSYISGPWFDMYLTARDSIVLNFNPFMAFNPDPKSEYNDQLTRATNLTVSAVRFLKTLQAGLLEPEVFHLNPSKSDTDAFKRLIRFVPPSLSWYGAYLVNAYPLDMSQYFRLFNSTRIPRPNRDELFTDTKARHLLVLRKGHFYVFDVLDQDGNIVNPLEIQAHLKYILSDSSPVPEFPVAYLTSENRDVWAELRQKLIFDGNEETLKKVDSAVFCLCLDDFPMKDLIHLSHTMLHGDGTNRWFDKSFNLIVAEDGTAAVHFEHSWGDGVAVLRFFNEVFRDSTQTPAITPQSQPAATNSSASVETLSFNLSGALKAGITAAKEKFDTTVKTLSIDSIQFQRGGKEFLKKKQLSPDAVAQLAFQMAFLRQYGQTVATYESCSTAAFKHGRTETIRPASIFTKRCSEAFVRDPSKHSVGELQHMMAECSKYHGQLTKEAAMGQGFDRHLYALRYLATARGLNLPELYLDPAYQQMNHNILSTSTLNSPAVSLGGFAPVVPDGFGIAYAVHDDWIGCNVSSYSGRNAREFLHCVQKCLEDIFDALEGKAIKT
READOUT LABEL: IC50 (µM)

Answered cases to consult:
[[record]]
molecule = "COc1ccc(Cl)cc1S(=O)(=O)N1CCOc2c1cc(C(=O)Nc1ccc(C(=O)O)cc1)cc2C(F)(F)F"
readout_label = "IC50"
quantity_unit = "µM"
number = 5.23

[[record]]
molecule = "O=C([C@H]1CCCCN1C(=O)COc1ccccc1)N1Cc2ccc(OCC3CC3)cc2C1"
readout_label = "IC50"
quantity_unit = "µM"
number = 1.12


P. COc1ccc(Cl)cc1S(=O)(=O)N1CC[S+]([O-])c2ccc(C(=O)Nc3ccc(C(=O)O)cc3)cc21 (stereo not drawn)
Q. CC1(C)NC(=O)N(c2ccc(Cl)c(-c3nc([C@H]4CCCCN4C(=O)COc4ccccc4)no3)c2)C1=O
-- ask In the pair P and Q , the larger recorded IC50 belongs to which? Selection: enter the item's label.
-- reply P
(P: 55.6 µM, Q: 21.7 µM)
